Biological target: rat VR1 (Rattus norvegicus, UniProt O35433)
Construct: expressed in transfected cells
Sequence (O35433 whole entry): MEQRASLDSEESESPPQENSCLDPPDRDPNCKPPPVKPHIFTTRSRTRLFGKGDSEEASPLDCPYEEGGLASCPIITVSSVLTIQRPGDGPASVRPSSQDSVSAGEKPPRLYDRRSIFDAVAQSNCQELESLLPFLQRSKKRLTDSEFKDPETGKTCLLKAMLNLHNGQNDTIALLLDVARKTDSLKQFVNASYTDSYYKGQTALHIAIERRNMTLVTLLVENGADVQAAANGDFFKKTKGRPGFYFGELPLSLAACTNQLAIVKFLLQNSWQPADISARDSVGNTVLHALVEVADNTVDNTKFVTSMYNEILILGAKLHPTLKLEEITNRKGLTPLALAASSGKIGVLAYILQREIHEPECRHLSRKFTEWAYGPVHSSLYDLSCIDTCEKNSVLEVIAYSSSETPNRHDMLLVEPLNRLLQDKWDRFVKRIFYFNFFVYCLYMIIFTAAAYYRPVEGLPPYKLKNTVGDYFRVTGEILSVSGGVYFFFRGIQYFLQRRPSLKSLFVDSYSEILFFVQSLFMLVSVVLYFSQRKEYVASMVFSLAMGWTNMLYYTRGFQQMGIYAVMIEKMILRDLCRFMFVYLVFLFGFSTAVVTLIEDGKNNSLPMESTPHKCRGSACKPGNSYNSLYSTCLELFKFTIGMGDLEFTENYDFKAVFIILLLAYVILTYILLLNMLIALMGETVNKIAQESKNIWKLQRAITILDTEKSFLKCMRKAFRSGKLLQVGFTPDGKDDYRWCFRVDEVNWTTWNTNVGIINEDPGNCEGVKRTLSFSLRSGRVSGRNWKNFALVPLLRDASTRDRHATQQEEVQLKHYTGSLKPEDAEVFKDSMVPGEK
Experiment: 45Ca2+-uptake assay in CHO/VR1 cells, antagonism of capsaicin-stimulated uptake
Type: cell-based
Settings: 45Ca2+ uptake stimulated by 50 nM capsaicin
Method: Initial stocks were dissolved in DMSO. For the binding assays, compounds were diluted in with DPBS with Ca^2+ and Mg^2+ and 0.25 mg/mL bovine serum albumin. […] Molecules were characterized to determine whether they were full agonists, partial agonists, or antagonists. […] Plates were shaken slowly for 20 min; then 306 μL of cell lysate was transferred from each well into a scintillation vial and radioactivity was determined by scintillation counting. […]
Okay, here is how we bin by Ki: low range = under 40 nM, mid range = from 40 nM up to 400 nM, high range = 400 nM and over

Here are 5 molecules together with their reported answers.
molecule: CC(NC(=S)NCC(COC(=O)C(C)(C)C)Cc1ccc(C(C)(C)C)cc1)c1ccc(NS(C)(=O)=O)c(F)c1 (centres unmarked)
assigned-category: low range
//
molecule: COc1cc(C2(C(=O)NCc3ccc(C(C)(C)C)cc3)CC2)ccc1NS(C)(=O)=O
assigned-category: high range
//
molecule: CC(C)(C)c1ccc(CNC(=S)NC(Cc2ccccc2)c2ccc(NS(C)(=O)=O)c(F)c2)cc1 (centres unmarked)
assigned-category: high range
//
molecule: Cc1ccc(CC(CNC(=O)C(C)(C)c2ccc(NS(C)(=O)=O)cc2)COC(=O)C(C)(C)C)cc1C (centres unmarked)
assigned-category: mid range
//
molecule: Cc1ccc(CC(CNC(=O)C(C)c2ccc(NS(C)(=O)=O)c(F)c2)COC(=O)C(C)(C)C)cc1C (centres unmarked)
assigned-category: low range

Classify this molecule: CC(NC(=S)NCC(COC(=O)C(C)(C)C)Cc1ccc(C(C)(C)C)cc1)c1ccc(NS(C)(=O)=O)cc1 (centres unmarked) low range

Classify this molecule: `C[C@@H](C(=O)NC[C@H](COC(=O)C(C)(C)C)Cc1ccccc1)c1ccc(NS(C)(=O)=O)c(F)c1` mid range

Classify this molecule: `CC(C)(C)c1ccc(CNC(=S)NC(C)(C)c2ccc(NS(C)(=O)=O)c(F)c2)cc1` high range

Classify this molecule: CC(C(=O)NCc1ccc(Cl)cc1)c1ccc(NS(C)(=O)=O)c(F)c1 (centres unmarked) mid range
